Test protocol: small-molecule binders of probe aNOTCH2, primary screen, biochemical, small-molecule microarray, 635/667 nm fluorescence (AID 1121);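 also: score merges feature fluorescence read at 667 nm with its signal to noise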
Run conditions: higher = more signal
Kind request: treat -0.09 as inclusive, so composite z-score at -0.09 or higher is condition met, anything lower is condition not met.

[
  {
    "Compound": "COC(=O)[C@@]1(Cc2ccc(F)cc2)[C@H]2c3cc(C(=O)N(C)C)n(Cc4ccc(C(F)(F)F)nc4)c3C[C@H]2CN1C(=O)c1ccccc1",
    "Group label": "condition met"
  },
  {
    "Compound": "COC(=O)[C@@]1(Cc2ccc(F)cc2)[C@H]2c3cc(C(=O)N4CCCC4)n(CCSCCO)c3C[C@H]2CN1C(=O)c1ccccc1",
    "Group label": "condition met"
  },
  {
    "Compound": "O=C(NC1CC1)[C@@H]1c2ccccc2C(=O)N(C2CCCCC2)[C@H]1c1ccc(CO)cc1",
    "Group label": "condition not met"
  },
  {
    "Compound": "COC(=O)[C@@]1(Cc2ccc(F)cc2)[C@@H]2C(=CC(=O)[C@H]2CC(=O)C(=O)N2CCCC2)CN1C(=O)c1ccccc1",
    "Group label": "condition met"
  },
  {
    "Compound": "COC(=O)[C@]1(Cc2ccccc2CN=[N+]=[N-])N=C(c2ccc(OCCCO)cc2)O[C@@H]1c1ccccc1N=[N+]=[N-]",
    "Group label": "condition met"
  },
  {
    "Compound": "COC(=O)[C@H]1N=C(c2ccc(OCCCO)cc2)O[C@H]1c1ccccc1N=[N+]=[N-]",
    "Group label": "condition met"
  },
  {
    "Compound": "Cc1cccc([C@H]2C[C@H]3C(Br)=C[C@@]2(CO)C(=O)[C@]32CO2)c1",
    "Group label": "condition not met"
  },
  {
    "Compound": "COc1cccc(C)c1NC(=O)O[C@H]1[C@H](OC(=O)Nc2ccccc2)[C@@H](OC(=O)Nc2ccccc2)[C@@H](OC)O[C@@H]1CO",
    "Group label": "condition met"
  },
  {
    "Compound": "C=C(C(=O)CC[C@@H](OC(=O)c1ccccc1-c1ccccc1C(=O)O)c1cccc(OCCO)c1)C(C)C",
    "Group label": "condition met"
  },
  {
    "Compound": "C[C@]12C(=O)N(CCO)[C@@H]3C(=O)N(c4ccc(Cl)cc4)CC=CC31O[C@@H]1/C=C\\CCCOC(=O)C12 (stereo partly drawn)",
    "Group label": "condition met"
  },
  {
    "Compound": "C=CC[C@H](O)c1ccc(O)c(F)c1",
    "Group label": "condition not met"
  },
  {
    "Compound": "CCOC(=O)C[C@H]1[C@H](OC(=O)Cc2ccc3c(c2)OCO3)[C@@H](NC(=O)CC(C)C)c2cc(OCCCO)ccc2N1C(=O)c1ccc2ccccc2n1",
    "Group label": "condition not met"
  },
  {
    "Compound": "COCCCNC(=O)[C@@]1(CCC(=O)OC(C)(C)C)N=C(c2ccc(OCCCO)cc2)O[C@H]1c1ccccc1",
    "Group label": "condition met"
  },
  {
    "Compound": "COCCCNC(=O)[C@@]1(c2ccc([N+](=O)[O-])cc2)CC(=O)N(C2CCCCC2)[C@@H]1c1ccc(CO)cc1I",
    "Group label": "condition met"
  },
  {
    "Compound": "CC(C)N1C(=O)[C@@]2(Cc3ccccc31)c1ccccc1C(=O)N(Cc1ccccc1C(F)(F)F)[C@H]2c1ccc(CO)cc1",
    "Group label": "condition met"
  },
  {
    "Compound": "O=C1OCC=C[C@H]2OC34C=CCN(Cn5nnc6ccccc65)C(=O)[C@H]3N(CCO)C(=O)[C@@H]4[C@@H]12 (stereo partly drawn)",
    "Group label": "condition not met"
  },
  {
    "Compound": "C=CC[C@]1(C(=O)NCC(O)CO)N=C(c2ccc(OCCCO)cc2)O[C@H]1c1ccccc1CN=[N+]=[N-] (stereo partly drawn)",
    "Group label": "condition met"
  },
  {
    "Compound": "CCCC=C(CCC)[C@@H](NC(=O)c1ccc(C(=O)OC)cc1)c1ccc(C(=O)OC)cc1",
    "Group label": "condition met"
  },
  {
    "Compound": "[N-]=[N+]=NCc1ccccc1[C@H]1OC(c2ccc(OCCCO)cc2)=N[C@@]1(CCS(=O)(=O)c1ccccc1)C(=O)O",
    "Group label": "condition not met"
  },
  {
    "Compound": "Cc1ccc(S[C@]2(C(=O)NC(C)C)CC(=O)N(Cc3ccccc3)[C@@H]2c2ccc(CO)cc2I)cc1",
    "Group label": "condition not met"
  },
  {
    "Compound": "COC(=O)C(CC#Cc1ccc2c(c1)[C@]1(C(=O)N2)[C@H](C(=O)NC[C@H](O)c2ccccc2)[C@H]2C(=O)O[C@H](c3ccccc3)[C@H](c3ccccc3)N2[C@@H]1c1ccc(O)cc1)C(=O)OC",
    "Group label": "condition not met"
  },
  {
    "Compound": "COc1ccc([Si](C)(C)[C@H]2[C@H](CC(=O)N(CCO)Cc3ccccc3)O[C@@]3(C(=O)N(Cc4ccc(N5C(=O)c6cccc7cccc5c67)cc4)c4ccccc43)[C@@H]2C)cc1",
    "Group label": "condition not met"
  },
  {
    "Compound": "COC(=O)[C@@]1(Cc2ccc(F)cc2)[C@H]2c3cc(C(=O)N(C)C)n(CCF)c3C[C@H]2CN1C(=O)c1ccccc1",
    "Group label": "condition met"
  },
  {
    "Compound": "COC(=O)C(CC#Cc1ccc2c(c1)[C@]1(C(=O)N2)[C@H](C(=O)N2CCCCCCC2)[C@H]2C(=O)O[C@H](c3ccccc3)[C@H](c3ccccc3)N2[C@@H]1c1ccc(OCCO)cc1)C(=O)OC",
    "Group label": "condition met"
  },
  {
    "Compound": "CCCCCCc1nc(-c2ccc(OC)nc2)c(C)c2c1[Si](C(C)C)(C(C)C)OC2",
    "Group label": "condition not met"
  },
  {
    "Compound": "CN1C2C=C(c3ccc(CO)cc3)C(C3C(=O)N(C(N)=O)C(=O)C32)C1C1CC1 (stereo not drawn)",
    "Group label": "condition not met"
  },
  {
    "Compound": "Cc1ccc(S[C@]2(C(=O)NCc3ccccc3)CC(=O)N(Cc3ccccc3C(F)(F)F)[C@@H]2c2ccc(CO)cc2I)cc1",
    "Group label": "condition met"
  },
  {
    "Compound": "C=CCOC(=O)[C@@H]1[C@H]2C(=O)O[C@H](c3ccccc3)[C@H](c3ccccc3)N2[C@H](c2ccc(OCCOC(=O)[C@@H]3C[C@@H]4C(=O)N[C@@H](CC(C)C)C(=O)N4[C@@H]3c3ccc(O)cc3)cc2)[C@@]12C(=O)Nc1ccc(I)cc12",
    "Group label": "condition met"
  }
]
